assay: Circulating half-life in dog; type: in vivo; details: beagle, in vivo, assays conducted by applicant, read-out: Half-life (converted)
*1 amine or outer side, *2 acyl side, *3 side chain or, on linkers, in order; H or OH if unused. Where a SMILES comes first, the peptide text is derived from it. Bridges are numbered along the chain shown (N, C = ends). [ ]: non-standard residue; d: D form. The star is where a group is joined. pTerphenylCO(4''-OnC5H11) = CCCCCOc1ccc(-c2ccc(-c3ccc(C(=O)*)cc3)cc2)cc1; Orn(4R-OH,5R-OH) = O=C([C@H](C[C@@H](O)[C@@H](O)N[*:3])N[*:1])[*:2]; hTyr(3S-OH,4S-OH) = N[C@H](C(=O)O)[C@H](O)[C@@H](O)c1ccc(O)cc1; Pro(3S-OH,4S-Me) = C[C@H]1CN[C@H](C(=O)O)[C@H]1O; Hyp = O=C(O)[C@@H]1C[C@@H](O)CN1

Compound | Units Symbol | Half-life
CCCCCOc1ccc(-c2ccc(-c3ccc(C(=O)N[C@H]4C[C@@H](O)[C@@H](O)NC(=O)[C@@H]5[C@@H](O)[C@@H](C)CN5C(=O)[C@H]([C@@H](C)O)NC(=O)[C@H]([C@H](O)[C@@H](O)c5ccc(O)cc5)NC(=O)[C@@H]5C[C@@H](O)CN5C(=O)[C@H]([C@@H](C)O)NC4=O)cc3)cc2)cc1 [Anidulafungin, anidulafungin, reference compound] ({pTerphenylCO(4''-OnC5H11)}-[Orn(4R-OH,5R-OH)]T[Hyp][hTyr(3S-OH,4S-OH)]T[Pro(3S-OH,4S-Me)]; lactam 1-C) | min | 720

====

experiment: Pharmacokinetics (oral bioavailability) following oral administration in beagle dogs; assay type: in vivo; conditions: oral about 7-10 mg/kg, formulation 11 (saline)
Reported % BA in saline values are given for each entry in this list.
Readout Type: % BA in saline (%)

Molecule | Readout Type | Units Symbol | Value Measured
CCCCCOc1ccc(-c2ccc(-c3ccc(C(=O)NC4CC(O)C(OCCOCCOC)NC(=O)C5C(O)C(C)CN5C(=O)C(C(C)O)NC(=O)C(C(O)C(O)c5ccc(O)cc5)NC(=O)C5CC(O)CN5C(=O)C(C(C)O)NC4=O)cc3)cc2)cc1 (centres unmarked) [Compound 19] | % BA in saline | % | 5.74
CCCCCOc1ccc(-c2ccc(-c3ccc(C(=O)NC4CC(O)C(OCCOCCO)NC(=O)C5C(O)C(C)CN5C(=O)C(C(C)O)NC(=O)C(C(O)C(O)c5ccc(O)cc5)NC(=O)C5CC(O)CN5C(=O)C(C(C)O)NC4=O)cc3)cc2)cc1 (centres unmarked) [Compound 21] | % BA in saline | % | 4.70

====

test: Pharmacokinetics following intravenous administration in beagle dogs; assay type: in vivo; conditions: 1.4 mg/kg IV slow bolus

Molecule | T1/2
CC(=O)[O-].CCCCCOc1ccc(-c2ccc(-c3ccc(C(=O)NC4CC(O)C(OCC[N+](C)(C)C)NC(=O)C5C(O)C(C)CN5C(=O)C(C(C)O)NC(=O)C(C(O)C(O)c5ccc(O)cc5)NC(=O)C5CC(O)CN5C(=O)C(C(C)O)NC4=O)cc3)cc2)cc1 (stereo not drawn) [Compound 22] | 53.1 h
CCCCCOc1ccc(-c2ccc(-c3ccc(C(=O)NC4CC(O)C(NCC[N+](C)(C)C)NC(=O)C5C(O)C(C)CN5C(=O)C(C(C)O)NC(=O)C(C(O)C(O)c5ccc(O)cc5)NC(=O)C5CC(O)CN5C(=O)C(C(C)O)NC4=O)cc3)cc2)cc1 (stereo not drawn) [Compound 37] | 27.6 h
CCCCCOc1ccc(-c2ccc(-c3ccc(C(=O)NC4CC(O)C(NCCNCCO)NC(=O)C5C(O)C(C)CN5C(=O)C(C(C)O)NC(=O)C(C(O)C(O)c5ccc(O)cc5)NC(=O)C5CC(O)CN5C(=O)C(C(C)O)NC4=O)cc3)cc2)cc1 (stereo not drawn) [Compound 39] | 21.0 h
